# system tested: human FPRL1 (Homo sapiens)
# Construct: expressed in transfected cells; host or cells: HEK293 (JCRB9068, NIBIO), transient transfection with pCMV-script vectors using Lipofectamine 2000
# experiment: Measurement test of agonist activity on human FPRL1 (test of calcium mobilization in cell, HEK293 with human FPRL1 and Gα15 expression vectors)
# Assay type: cell-based
# condition summary: calcium mobilization in HEK293 cells with human FPRL1 and Gα15 expression vectors
pEC50: −log10 of the molar value.
readout label: pEC50

The cases that follow already have their pEC50 on record.
compound: COc1cc(F)c([C@@H]2CNC(=O)[C@H]2NC(=O)Nc2cc(C)ns2)c(F)c1 (relative stereo)
pEC50: 9.49

compound: COc1cc(F)c([C@@H]2CN(Cc3cccnc3)C(=O)[C@H]2NC(=O)Nc2ccc(F)cc2)c(F)c1 (relative stereo)
pEC50: 9.96

compound: O=C(Nc1ccc(F)cc1)N[C@@H]1C(=O)NC[C@H]1c1cc2ccoc2cc1F (relative stereo)
pEC50: 8.28

P: COc1cc(F)c([C@@H]2CN(Cc3ccccc3)C(=O)[C@H]2NC(=O)Nc2ccc(F)cc2)c(F)c1 (relative stereo)
Q: COc1cc(F)c([C@@H]2CN(CCO)C(=O)[C@H]2NC(=O)Nc2ccc(Cl)nc2)c(F)c1 (relative stereo)
Input line: Of the two listed items, P and Q , which carries the larger pEC50 figure? Write down the label attached to your selection.
Output line: Q
(Q: 9.06, P: 8.66)

---

# system tested: human FPRL1 (Homo sapiens, UniProt P25090)
# Sequence (P25090 whole entry): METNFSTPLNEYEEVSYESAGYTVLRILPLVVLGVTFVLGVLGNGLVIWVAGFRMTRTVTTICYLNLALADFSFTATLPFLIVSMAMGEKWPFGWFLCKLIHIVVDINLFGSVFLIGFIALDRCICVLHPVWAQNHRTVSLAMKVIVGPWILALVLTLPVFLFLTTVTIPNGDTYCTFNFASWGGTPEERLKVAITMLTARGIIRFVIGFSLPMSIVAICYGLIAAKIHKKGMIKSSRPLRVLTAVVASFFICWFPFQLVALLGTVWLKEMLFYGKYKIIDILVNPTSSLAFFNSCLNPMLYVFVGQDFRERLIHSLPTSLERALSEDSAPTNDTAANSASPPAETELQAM
# experiment: Measurement test of agonist activity on human FPRL1 (test of calcium mobilization in cell, HEK293 with human FPRL1 and Gα15 expression vectors)
# condition summary: calcium mobilization in HEK293 cells with human FPRL1 and Gα15 expression vectors
readout label: EC50 (nM)

molecule: O=C(Nc1ccc(F)cc1)N[C@@H]1C(=O)NC[C@H]1c1c(F)cc2c(c1F)CCO2 (relative stereo) [Example 1-80]
EC50 [nM]: 0.69

molecule: N#CCN1C[C@@H](c2cc3c(cc2F)OCC3)[C@H](NC(=O)Nc2ccc(F)cc2)C1=O (single isomer, unassigned) [EXAMPLE 24-23]
EC50 [nM]: 0.8

a: COc1cc(F)c([C@@H]2CN(CCO)C(=O)[C@H]2NC(=O)Nc2ccc(C)cc2)c(F)c1 (relative stereo) [Example 24-7]
b: C#Cc1ccc(NC(=O)N[C@@H]2C(=O)NC[C@H]2c2c(F)cc(OC)cc2F)cc1 (single isomer, unassigned) [EXAMPLE 28-4]
c: COc1cc(F)c([C@@H]2CN(C)C(=O)[C@H]2NC(=O)Nc2ccc(C#N)cc2)c(F)c1 (relative stereo) [Example 24-3]
Input line: Hey, can you sort those molecules up there by EC50, smallest first? Labels, requested order.
Output line: a, c, b

---

# system tested: human FPRL1 (Homo sapiens, UniProt P25090)
# experiment: Measurement test of agonist activity on human FPRL1 (test of calcium mobilization in cell, HEK293 with human FPRL1 and Gα15 expression vectors)
# condition summary: calcium mobilization in HEK293 cells with human FPRL1 and Gα15 expression vectors
readout label: EC50 (nM)

// below: answered molecules
molecule: Cc1nnc(CN2C[C@@H](c3cc4c(cc3F)OCC4)[C@H](NC(=O)Nc3ccc(F)cc3)C2=O)o1 (single isomer, unassigned) [EXAMPLE 24-24]
readout label: EC50
observed result: 0.46

molecule: C/N=C1\NC[C@@H](c2c(F)cc(OC)cc2F)[C@@H]1NC(=O)Nc1ccc(F)cc1 (relative stereo) [EXAMPLE 32-6]
readout label: EC50
observed result: 0.37

1: COc1ccc([C@@H]2CN(C(C)C(=O)O)C(=O)[C@H]2NC(=O)Nc2ccc(F)cc2)cc1 (single isomer, unassigned; isomer b) [Example 20-1]
2: COc1ccc([C@@H]2CNC(=O)[C@H]2NC(=O)Nc2ccc(F)cc2)c(Cl)c1 (relative stereo) [EXAMPLE 1-10]
3: COc1cc(F)c([C@@H]2CN(CCO)C(=O)[C@H]2NC(=O)Nc2cc3ccccc3s2)c(F)c1 (relative stereo) [Example 24-10]
4: COc1ccc([C@@H]2CNC(=O)C2NC(=O)Nc2ccc(F)cc2)cc1 (mixture of isomers) [Example 1-54]
Input line: Arrange items by their EC50 values in increasing order. Labels, ranked as asked.
Output line: 4, 1, 3, 2
(4: 0.11 nM, 1: 0.47 nM, 3: 1 nM, 2: 3.98 nM)

---

# system tested: human FPRL1 (Homo sapiens)
# experiment: Measurement test of agonist activity on human FPRL1 (test of calcium mobilization in cell, HEK293 with human FPRL1 and Gα15 expression vectors)
# condition summary: calcium mobilization in HEK293 cells with human FPRL1 and Gα15 expression vectors
readout label: EC50 (pM)

compound: O=C(O)CN1C[C@@H](c2cc3c(cc2F)OCC3)[C@H](NC(=O)Nc2ccc(F)cc2)C1=O (relative stereo)
unit text: pM
EC50: 750
//
compound: COc1cc(F)c([C@@H]2CN/C(=N\OCCO)[C@H]2NC(=O)Nc2ccc(Cl)nc2)c(F)c1 (single isomer, unassigned)
unit text: pM
EC50: 820
//
compound: COc1cc(F)c([C@@H]2CNC(=O)[C@H]2NC(=O)Nc2cccc(F)c2)c(F)c1 (relative stereo)
unit text: pM
EC50: 950
//
compound: COc1cc(F)c([C@@H]2CNC(=O)[C@H]2NC(=O)Nc2ccc(C#N)cc2)c(F)c1 (single isomer, unassigned)
unit text: pM
EC50: 780
